All figures here come from patent US20220298135A1.

biological target: human NPFFR1 (hNPFFR1) receptor (Homo sapiens, UniProt Q9GZQ6); assay: Human NPFFR1 evaluation using BRET biosensors (antagonist IC50); settings: hNPFFR1 transiently over-expressed in HEK-293 T cells; BRET signal; stimulation by EC80 RFRP-3
Sequence (Q9GZQ6 whole entry): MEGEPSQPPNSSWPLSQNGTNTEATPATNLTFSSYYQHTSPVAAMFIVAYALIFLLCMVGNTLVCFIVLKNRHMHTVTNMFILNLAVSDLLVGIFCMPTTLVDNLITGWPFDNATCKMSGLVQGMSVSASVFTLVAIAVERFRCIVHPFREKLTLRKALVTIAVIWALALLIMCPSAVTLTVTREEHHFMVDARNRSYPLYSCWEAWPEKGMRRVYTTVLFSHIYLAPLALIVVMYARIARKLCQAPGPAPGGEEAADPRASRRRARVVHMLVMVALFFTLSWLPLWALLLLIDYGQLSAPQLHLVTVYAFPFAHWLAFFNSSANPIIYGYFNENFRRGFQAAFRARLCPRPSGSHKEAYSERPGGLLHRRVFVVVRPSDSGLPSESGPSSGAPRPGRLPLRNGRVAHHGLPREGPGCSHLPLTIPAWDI
PROPERTY LABEL: IC50

>>> print(df.to_string())
                                   molecule          result
0  CCc1nc(N)ccc1-c1c(F)ccc2ccc(C)nc12.Cl [Example 76]        < 100 nM
1  CCCc1nc(N)ccc1-c1csc2ccccc12.Cl [Example 7]  100 to 1000 nM
2  CCc1nc(N)ccc1-c1cccc2ccc(-c3ccc4nccn4c3)nc12.Cl [Example 123]        < 100 nM
3  CCc1nc(N)ccc1-c1cccc2ccc(=O)n(C)c12.Cl [Example 156]       > 1000 nM

* * *

PROPERTY LABEL: melting point

                                    molecule  property_label         result
 0  CCOc1ccc2cccc(-c3ccc(N)nc3CC)c2n1.Cl [Example 94]   melting point    35 to 70 °C
 1  CCc1nc(N)ccc1-c1cccc2ccc(C(=O)N3CCOCC3)nc12.Cl [Example 166]   melting point  130 to 135 °C
 2  CCc1nc(N)ccc1-c1c(C(N)=O)ccc2cccnc12.Cl [Example 152]   melting point  150 to 164 °C
 3  CCc1nc(N)ccc1-c1cc(F)ccc1-c1ccc(N2CCOCC2)nc1.Cl [Example 83]   melting point   85 to 100 °C
 4  CCc1nc(N)ccc1-c1cccc2ccc(C3CCOCC3)nc12.Cl [Example 121]   melting point  175 to 185 °C
 5  CCc1nc(N)ccc1-c1c(F)ccc2cccnc12.Cl [Example 65]   melting point  150 to 195 °C
 6  CC(C)c1nc(N)ccc1-c1csc2ccccc12.Cl [Example 10]   melting point       > 250 °C
 7  CCc1nc(N)ccc1-c1c(F)c(F)cc2cc(O)cnc12.Cl [Example 112]   melting point  204 to 210 °C
 8  CN1Cc2c(cccc2-c2ccc(N)nc2N)C1=O [Example 27]   melting point       > 250 °C
 9  CCc1nc(N)ccc1-c1cccc2cc(F)cnc12.Cl [Example 97]   melting point  210 to 245 °C
10  Nc1ccc(-c2cccc3ncccc23)c(N)n1 [Example 34, 3-Quinolin-5-yl-pyridine-2,6-diamine]   melting point       > 250 °C
11  Cl.Nc1ccc(-c2cccc3c2OCCO3)c(N)n1 [Example 38]   melting point   99 to 110 °C
12  Cl.Nc1ccc(-c2ccccc2-c2cccnc2)c(N)n1 [Example 45]   melting point  100 to 135 °C
13  CCc1nc(N)ccc1-c1cccc2ccc(C)nc12.Cl [Example 90]   melting point  110 to 150 °C
14  CCc1nc(N)ccc1-c1cccc2c1NCCC2.Cl [Example 106]   melting point  147 to 160 °C
15  CCc1nc(N)ccc1-c1c(F)ccc2ccc(N3CCCCCC3)nc12.Cl [Example 137]   melting point  110 to 145 °C
16  Cl.Nc1ccc(-c2ccc(F)c3cccnc23)c(N)n1 [Example 55]   melting point    73 to 81 °C
17  CCc1nc(N)ccc1-c1c(C(F)(F)F)ccc2cccnc12.Cl [Example 109]   melting point  150 to 180 °C
18  Cl.Nc1ccc(-c2cccc3ccsc23)c(N)n1 [Example 29]   melting point  100 to 113 °C
19  CCc1nc(N)ccc1-c1cccc2ccc(-c3cnoc3)nc12 [Example 125]   melting point  178 to 182 °C
20  Cl.Nc1ccc(-c2c(F)ccc3cccnc23)c(N)n1 [Example 57]   melting point  190 to 220 °C
21  Cl.Nc1ccc(-c2csc3ccccc23)c(C2CC2)n1 [Example 13]   melting point  210 to 220 °C
22   CCc1nc(N)ccc1-c1csc2ccccc12 [Example 4]   melting point  108 to 120 °C
23  Cl.Nc1ccc(-c2cccc3c2OCC3)c(N)n1 [Example 28]   melting point       > 250 °C
24  CCc1nc(N)ccc1-c1c(C)sc2ccccc12.Cl [Example 41]   melting point    70 to 72 °C
25  CC(C)c1nc(N)ccc1-c1cccc2cccnc12.Cl [Example 11]   melting point       > 250 °C
26  Cl.Nc1ccc(-c2cccc3ccncc23)c(N)n1 [Example 32, 3-Isoquinolin-8-yl-pyridine-2,6-diamine]   melting point    77 to 88 °C
27  CCc1nc(N)ccc1-c1cccc2ccc(C(=O)NC3COC3)nc12 [Example 175]   melting point  156 to 162 °C
28  CCc1nc(N)ccc1-c1ccc(C(F)(F)F)c2cccnc12.Cl [Example 75]   melting point  120 to 137 °C
29  Cl.Nc1ccc(-c2c(F)ccc3cccnc23)c(CCC(F)(F)F)n1 [Example 69]   melting point   85 to 145 °C
30  CC(C)CCc1nc(N)ccc1-c1c(F)ccc2cccnc12.Cl [Example 73]   melting point  100 to 140 °C
31  CCc1nc(N)ccc1-c1cccc2ccc(C(=O)N(CC)C(C)C)nc12.Cl [Example 170]   melting point  121 to 125 °C
32  Cl.Nc1ccc(-c2cccc3c2oc2ccccc23)c(N)n1 [Example 40, 3-Dibenzofuran-4-ylpyridine-2,6-diamine]   melting point  135 to 143 °C
33  CCc1nc(N)ccc1-c1c(F)ccc2ccc(N(CC)C(C)C)nc12.Cl   melting point  214 to 229 °C

* * *

Listed here: items and their measured melting point.
PROPERTY LABEL: melting point

>>> print(df.to_string())
                                    compound  property_label         result
 0  CCc1nc(N)ccc1-c1c(F)c(F)cc2cccnc12.Cl [Example 111]   melting point  150 to 190 °C
 1  CCc1nc(N)ccc1-c1cccc2ccc(-c3ccc4nccn4c3)nc12.Cl [Example 123]   melting point    70 to 75 °C
 2  Nc1ccc(-c2cccc3cnccc23)c(N)n1 [Example 33, 3-(5-Isoquinolyl)pyridine-2,6-diamine]   melting point       > 250 °C
 3  CC(C)c1nc(N)ccc1-c1cccc2ccncc12.Cl [Example 12]   melting point       > 250 °C
 4  Cl.Nc1ccc(-c2cccc3cccnc23)c(F)n1 [Example 2]   melting point       > 250 °C
 5  Nc1ccc(-c2ccnc3ccccc23)c(N)n1 [Example 35, 3-Quinolin-4-yl-pyridine-2,6-diamine]   melting point       > 250 °C
 6  CCc1nc(N)ccc1-c1cccc2ccc(C(=O)NC3CCOCC3)nc12.Cl [Example 173]   melting point  112 to 125 °C
 7  Cl.Nc1ccc(-c2cccc3cccnc23)c(C2CC2)n1 [Example 14]   melting point       > 250 °C
 8  CCc1nc(N)ccc1-c1ccccc1-c1ccc(N2CCCCC2)nc1.Cl [Example 80]   melting point    50 to 80 °C
 9  CCc1nc(N)ccc1-c1c(F)ccc2ccc(N3CCOCC3)nc12.Cl [Example 135]   melting point  100 to 146 °C
10  CCc1nc(N)ccc1-c1cccc2ccncc12.Cl [Example 6, 6-Ethyl-5-(8-isoquinolyl)pyridin-2-amine]   melting point       > 250 °C
11  Cl.Nc1ccc(-c2cccc3c2OCCC3)c(N)n1 [Example 37, 3-Chroman-8-yl-pyridine-2,6-diamine]   melting point  110 to 124 °C
12  Nc1ccc(-c2c[nH]c3ccccc23)c(N)n1 [Example 18, 3-(1H-indol-3-yl)pyridine-2,6-diamine]   melting point  152 to 155 °C
13  CCc1nc(N)ccc1-c1c(F)ccc2cc(F)cnc12.Cl [Example 143]   melting point  245 to 250 °C
14  Cc1cc(-c2ccc(N)nc2N)c2ncccc2c1.Cl [Example 53]   melting point  180 to 200 °C
15  CCc1nc(N)ccc1-c1c(OC)ccc2cccnc12.Cl [Example 98]   melting point  230 to 250 °C

* * *

IC50: recorded values
target: human NPFFR1 (hNPFFR1) receptor (Homo sapiens); experiment: Human NPFFR1 evaluation using BRET biosensors (antagonist IC50); conditions: hNPFFR1 transiently over-expressed in HEK-293 T cells; BRET signal; stimulation by EC80 RFRP-3
PROPERTY LABEL: IC50

In [3]: df
Out[3]:
                              line_notation                         system_under_test  property_label          result
0        CCc1nc(N)ccc1-c1c(F)ccc2c1OCCC2.Cl  human NPFFR1 (hNPFFR1) receptor (Homo sapiens)            IC50        < 100 nM
1  CCc1nc(N)ccc1-c1cccc2ccc(C(=O)N3CCOCC3)nc12.Cl  human NPFFR1 (hNPFFR1) receptor (Homo sapiens)            IC50        < 100 nM
2  CCc1nc(N)ccc1-c1cccc2ccc(C(=O)N3CC4CCC(C3)O4)nc12.Cl  human NPFFR1 (hNPFFR1) receptor (Homo sapiens)            IC50        < 100 nM
3     CCc1nc(N)ccc1-c1cccc2ccc(N)nc12.Cl.Cl  human NPFFR1 (hNPFFR1) receptor (Homo sapiens)            IC50  100 to 1000 nM
4  CCc1nc(N)ccc1-c1cccc2ccc(C(=O)N3CCC(c4ccccc4)CC3)nc12.Cl  human NPFFR1 (hNPFFR1) receptor (Homo sapiens)            IC50  100 to 1000 nM
5     CCc1nc(N)ccc1-c1c(F)c(F)cc2cccnc12.Cl  human NPFFR1 (hNPFFR1) receptor (Homo sapiens)            IC50        < 100 nM
6     CCc1nc(N)ccc1-c1ccccc1-c1ccc(F)nc1.Cl  human NPFFR1 (hNPFFR1) receptor (Homo sapiens)            IC50  100 to 1000 nM
7       Nc1ccc(-c2c(F)cc(F)c3cccnc23)c(N)n1  human NPFFR1 (hNPFFR1) receptor (Homo sapiens)            IC50        < 100 nM
